tgt: recombinant human AChE (Homo sapiens)
Sequence (P22303 32-614): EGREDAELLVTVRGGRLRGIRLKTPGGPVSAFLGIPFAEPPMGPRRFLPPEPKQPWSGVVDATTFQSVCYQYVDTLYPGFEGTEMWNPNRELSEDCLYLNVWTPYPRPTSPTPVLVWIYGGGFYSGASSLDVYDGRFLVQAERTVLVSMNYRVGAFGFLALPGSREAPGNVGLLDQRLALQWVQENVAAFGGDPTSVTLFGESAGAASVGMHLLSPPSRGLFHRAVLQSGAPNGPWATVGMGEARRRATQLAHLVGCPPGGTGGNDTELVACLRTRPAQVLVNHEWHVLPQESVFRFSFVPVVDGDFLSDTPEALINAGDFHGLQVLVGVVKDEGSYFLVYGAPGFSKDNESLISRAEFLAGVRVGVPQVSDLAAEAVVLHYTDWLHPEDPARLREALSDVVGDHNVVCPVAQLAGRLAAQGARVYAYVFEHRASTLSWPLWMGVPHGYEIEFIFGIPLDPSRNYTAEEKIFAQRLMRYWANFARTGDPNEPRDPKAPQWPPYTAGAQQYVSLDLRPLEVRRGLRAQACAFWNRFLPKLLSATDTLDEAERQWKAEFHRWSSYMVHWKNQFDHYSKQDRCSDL
protocol_summary: biochemical
run_parameters: IC50 (μM), Colorimetric, +Human MS
Kindly state log10 of IC50 for each of the entries shown.
Form field - Quantity: IC50; Unit: µM; Scale: log10

I need log10 of IC50 for every entry listed below, if you could help.
1. CCOP(=S)(OCC)Oc1nc(Cl)c(Cl)cc1Cl
2. CCOP(=S)(Oc1cnc(C(C)(C)C)nc1)OC(C)C (centres unmarked)
3. CCOP(=S)(OCC)OC(Cl)C(Cl)(Cl)Cl (centres unmarked)
4. CCOP(=S)(OCC)SCSC(C)(C)C
5. CCOP(=S)(OCC)Oc1ccc2c(C)c(Cl)c(=O)oc2c1

1: 0.23; 2: 1.16; 3: 1.04; 4: 1.50; 5: 0.91

====

Kindly state efficacy (%), Colorimetric, +Human MS for each of the entries shown.
tgt: recombinant human AChE (Homo sapiens)
protocol_summary: biochemical

Answered cases to consult:
CCOP(=S)(OCC)Oc1nc(Cl)c(Cl)cc1Cl :: 1.71±0.47 (−93.65±1.00) %
CCOP(=S)(OCC)Oc1ccc2c(C)c(Cl)c(=O)oc2c1 :: 8.06±1.94 (−98.15±5.15) %

I need efficacy (%), Colorimetric, +Human MS for every entry listed below, if you could help.
1. CCOP(=S)(Oc1cnc(C(C)(C)C)nc1)OC(C)C (centres unmarked)
2. CCOP(=S)(OCC)OC(Cl)C(Cl)(Cl)Cl (centres unmarked)
3. CCOP(=S)(OCC)SCSC(C)(C)C

14.39±2.31 (−95.21±2.02) %
10.88±0.00 (−102.91±1.64) %
31.74±5.73 (−57.67±2.16) %

====

tgt: recombinant human AChE (Homo sapiens)
Type: biochemical
measurement_type: IC50 (μM), Fluorescence, +Human MS

Answered cases to consult:
CCOP(=S)(OCC)SCSCC [Phorate] :: Inactive
CNC(=O)CSP(=S)(OC)OC [Dimethoate] :: Inactive
CCOC(=O)CC(SP(=S)(OC)OC)C(=O)OCC (stereo not drawn) :: Inactive
CCOP(=S)(OCC)SCSC(C)(C)C :: Inactive
CCN(CC)c1nc(C)cc(OP(=S)(OC)OC)n1 :: Inactive

IC50 (μM), Fluorescence, +Human MS recorded for this molecule, `COP(=S)(OC)SCN1C(=O)c2ccccc2C1=O` , is Inactive

====

Kindly state IC50 for each of the entries shown.
tgt: recombinant human AChE (Homo sapiens)
protocol_summary: biochemical
Assay type: biochemical
Give bare numbers, in µM.

CCOP(=O)(OCC)Oc1cc(C)nc(C(C)C)n1 :: 1.33

IC50 recorded for this compound, COP(=O)(OC)OC(Br)C(Cl)(Cl)Br (centres unmarked) , is 61.3

====

tgt: recombinant human AChE (Homo sapiens)
protocol_summary: biochemical
Format: biochemical
run_parameters: read-out: efficacy (%), Fluorescence, +Rat MS
Output Criterion met for Emax not less than 70%; output Criterion not met otherwise.

CCOP(=S)(Oc1cnc(C(C)(C)C)nc1)OC(C)C (centres unmarked) :: Criterion met
CCOP(=S)(OCC)Oc1nc(Cl)c(Cl)cc1Cl :: Criterion met
CCN(CC)c1nc(C)cc(OP(=S)(OC)OC)n1 :: Criterion not met

Alright, here's another compound for you.
Can `CCOP(=S)(OCC)Oc1ccc2c(C)c(Cl)c(=O)oc2c1` be said to have Emax at or above 70%? Criterion met
